Molecular target: Vascular endothelial growth factor receptor 2 (Homo sapiens, UniProt P35968)
Sequence (P35968 whole entry): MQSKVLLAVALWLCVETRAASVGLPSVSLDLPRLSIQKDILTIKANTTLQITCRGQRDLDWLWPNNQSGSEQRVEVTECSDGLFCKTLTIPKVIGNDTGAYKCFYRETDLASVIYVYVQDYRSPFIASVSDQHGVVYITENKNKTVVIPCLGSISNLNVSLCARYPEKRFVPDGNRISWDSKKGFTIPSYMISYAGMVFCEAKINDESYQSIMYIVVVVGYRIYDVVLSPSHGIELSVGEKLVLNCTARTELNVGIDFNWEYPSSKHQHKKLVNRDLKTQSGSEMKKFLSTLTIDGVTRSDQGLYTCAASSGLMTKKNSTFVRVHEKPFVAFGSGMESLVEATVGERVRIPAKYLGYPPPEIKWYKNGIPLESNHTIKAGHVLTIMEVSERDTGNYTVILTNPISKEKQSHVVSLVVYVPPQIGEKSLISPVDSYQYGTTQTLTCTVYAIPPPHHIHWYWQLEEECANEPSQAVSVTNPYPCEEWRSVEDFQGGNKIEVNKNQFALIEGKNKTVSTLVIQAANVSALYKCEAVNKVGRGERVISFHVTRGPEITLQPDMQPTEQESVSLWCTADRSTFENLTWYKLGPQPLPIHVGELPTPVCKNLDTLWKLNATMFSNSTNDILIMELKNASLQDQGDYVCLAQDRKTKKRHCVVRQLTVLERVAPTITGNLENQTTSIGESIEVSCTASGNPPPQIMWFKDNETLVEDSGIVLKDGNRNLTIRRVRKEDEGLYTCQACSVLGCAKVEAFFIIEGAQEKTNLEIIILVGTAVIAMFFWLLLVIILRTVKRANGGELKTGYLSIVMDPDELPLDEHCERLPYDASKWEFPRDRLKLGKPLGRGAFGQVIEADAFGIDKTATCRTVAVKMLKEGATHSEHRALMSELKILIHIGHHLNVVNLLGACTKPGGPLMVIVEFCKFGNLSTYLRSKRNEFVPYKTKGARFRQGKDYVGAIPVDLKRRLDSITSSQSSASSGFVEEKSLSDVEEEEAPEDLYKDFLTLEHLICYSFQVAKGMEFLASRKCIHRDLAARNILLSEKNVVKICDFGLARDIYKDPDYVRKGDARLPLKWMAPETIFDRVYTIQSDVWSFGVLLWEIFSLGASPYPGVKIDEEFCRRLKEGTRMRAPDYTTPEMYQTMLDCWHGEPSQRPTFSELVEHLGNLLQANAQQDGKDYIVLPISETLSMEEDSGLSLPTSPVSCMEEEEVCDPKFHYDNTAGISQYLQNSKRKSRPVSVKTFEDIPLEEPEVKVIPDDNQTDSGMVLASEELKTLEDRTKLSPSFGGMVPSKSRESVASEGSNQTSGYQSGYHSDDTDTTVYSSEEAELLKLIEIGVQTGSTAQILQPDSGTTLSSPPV
Assay: Inhibition of recombinant human VEGFR-2 using poly(Glu4/Tyr) and [gamma32P]ATP as substrate after 1 hr by scintillation counting
// returns class 0 unless IC50 is strictly below 5 µM, in which case class 1

Worked examples, 5 molecules total:
smiles_record=CCCCOc1cc2c(Nc3ccc(Br)cc3F)ncnc2cc1OCCN(CC)CC subject_of_test="Vascular endothelial growth factor receptor 2 (Homo sapiens, UniProt P35968)" group_label="class 0"
smiles_record=CCN(CC)CCOc1cc2ncnc(Nc3ccc(Br)cc3F)c2cc1OC subject_of_test="Vascular endothelial growth factor receptor 2 (Homo sapiens, UniProt P35968)" group_label="class 1"
smiles_record=CCCCOc1cc2c(Nc3ccc(NC(=O)OC)c(Cl)c3)ncnc2cc1OCCN(CC)CC subject_of_test="Vascular endothelial growth factor receptor 2 (Homo sapiens, UniProt P35968)" group_label="class 0"
smiles_record=COc1cc2ncnc(Nc3ccc(Br)cc3)c2cc1OC subject_of_test="Vascular endothelial growth factor receptor 2 (Homo sapiens, UniProt P35968)" group_label="class 1"
smiles_record=COc1cc2ncnc(Oc3ccc(NC(=O)Nc4cccc(Br)c4)c(C)c3)c2cc1OC subject_of_test="Vascular endothelial growth factor receptor 2 (Homo sapiens, UniProt P35968)" group_label="class 1"

For CCN(CC)CCOc1cc2ncnc(Nc3ccc(NC(=O)OC)c(Cl)c3)c2cc1OC , is the recorded IC50 below the cut-off of 5 µM?
class 0

For CCCCNC(=O)Nc1ccc(Nc2ncnc3cc(OC)c(OC)cc23)cc1 , is the recorded IC50 below the cut-off of 5 µM?
class 0

For CCN(CC)CCOc1cc2ncnc(Nc3ccc(F)c(Cl)c3)c2cc1OC , is the recorded IC50 below the cut-off of 5 µM?
class 0

For CCCC(=O)Nc1ccc(Nc2ncnc3cc(OC)c(OC)cc23)cc1C , is the recorded IC50 below the cut-off of 5 µM?
class 1

For CCCCOc1cc2c(Nc3ccc(NC(=O)OC)c(C)c3)ncnc2cc1OCCN(CC)CC , is the recorded IC50 below the cut-off of 5 µM?
class 0
